Where do these numbers come from? They come from patent US10202349B2.

- Test system: HCT-116
- Assay Protocol: Cytotoxic activity in vitro, SRB
- Type: cell-based, human
Decision: EC50 beneath 0.1 µM gives Condition met; EC50 meeting or exceeding 0.1 µM gives Condition not met.

Cc1ccc([N+](=O)[O-])c2c(NCCCN(C)CCCNc3ccc(C)c4[nH]c5ccccc5c(=O)c34)c3ccccc3nc12: Condition not met
CN(CCCNc1c2ccccc2nc2cccc([N+](=O)[O-])c12)CCCNc1ccc([N+](=O)[O-])c2[nH]c3ccc(O)cc3c(=O)c12: Condition met
Cc1ccc([N+](=O)[O-])c2c(NCCCN(C)CCCNc3ccc4ncn5c6ccc(O)cc6c(=O)c3c45)c3ccccc3nc12: Condition met
Cc1ccc([N+](=O)[O-])c2c(NCCNCCNCCNc3ccc([N+](=O)[O-])c4[nH]c5ccccc5c(=O)c34)c3ccccc3nc12: Condition not met

Prompt line: Does the reported EC50 of the following compound sit strictly below 0.1 µM? Cc1ccc([N+](=O)[O-])c2c(NCCNCCNCCNc3ccc(C)c4[nH]c5ccccc5c(=O)c34)c3ccccc3nc12
Response line: Condition not met

Prompt line: Does the reported EC50 of the following compound sit strictly below 0.1 µM? Cc1ccc([N+](=O)[O-])c2c(NCCCN(C)CCCNc3ccc([N+](=O)[O-])c4[nH]c5ccccc5c(=O)c34)c3ccccc3nc12
Response line: Condition met
